From: patent US20240025880A1

- TESTED SYSTEM: h P2X3 (Homo sapiens, UniProt P56373)
- PROTOCOL TEXT: In vitro electrophysiology assay for P2X3 (automated whole-cell patch clamp, α,β-MeATP agonist)
- Type: cell-based
- PROTOCOL CONDITIONS: Table 2; 800 nM α,β-MeATP, peak current; read-out: h P2X3 (pIC50 range of activity) (converted)
OBSERVATION TYPE: IC50

Solved entries:
[
  {
    "MOLECULE": "Cc1ccc(CNc2ncnc3c(OCCOCCO)cc(-c4ccc(F)cc4)cc23)nn1 [Example 55]",
    "EXPERIMENTAL VALUE": "< 316 nM"
  },
  {
    "MOLECULE": "C[C@@H](Nc1ncnc2c(OCC(F)F)cc(-c3ccc(F)cc3)cc12)c1cnc(C(F)(F)F)nc1 [Example 2]",
    "EXPERIMENTAL VALUE": "< 316 nM"
  }
]

query: # query: IC50 of entry CC(=O)N1CCC(Oc2cc(-c3ccc(F)cc3)cc3c(N[C@H](C)c4cnc(C(F)(F)F)nc4)ncnc23)CC1 [Example 35]
result: 316 to 3160 nM

query: Give the measured IC50 of Cc1ccc(CNc2ncnc3c(OCC#N)cc(-c4ccc(F)cc4)cc23)nn1 [Example 53] .
result: < 316 nM

====

- TESTED SYSTEM: UniProt P56373
- PROTOCOL TEXT: In vitro electrophysiology assay for P2X3 (automated whole-cell patch clamp, α,β-MeATP agonist)
- Assay type: cell-based
- PROTOCOL CONDITIONS: Table 3; 800 nM α,β-MeATP, peak current; read-out: h P2X3 (pIC50 range of activity) (converted)
Counter-ions that a name gives are not always drawn.
OBSERVATION TYPE: IC50

[
  {
    "COMPOUND": "COC(=O)N1CCC(Oc2cc(-c3ccc(F)cc3)cc3c(NCc4ccc(C)nn4)ncnc23)C1 (stereo not drawn)",
    "EXPERIMENTAL VALUE": "316 to 3160 nM"
  },
  {
    "COMPOUND": "CNS(=O)(=O)c1cc(-c2ccc(F)cc2)cc2c(N[C@H](C)c3noc(C)n3)ncnc12",
    "EXPERIMENTAL VALUE": "< 316 nM"
  }
]

query: Need IC50 of C[C@@H](Nc1ncnc2c(OCC3(C(=O)O)CCNCC3)cc(-c3ccc(F)cc3)cc12)c1cnc(C(F)(F)F)nc1 [Example 47, hydrochloride] , thanks.
result: 316 to 3160 nM

query: Reported IC50, compound `C[C@@H](Nc1ncnc2c(OCC(F)F)cc(-c3ccc(F)cc3)cc12)c1cnc(C(F)(F)F)nc1` : ____
result: < 316 nM

query: Requested field: IC50. Item: `CNS(=O)(=O)c1cc(-c2ccc(F)cc2)cc2c(N[C@H](C)c3ccc(C)nn3)ncnc12`
result: < 316 nM

====

IC50 reference
- TESTED SYSTEM: UniProtKB P56373
- Sequence (P56373 1-397): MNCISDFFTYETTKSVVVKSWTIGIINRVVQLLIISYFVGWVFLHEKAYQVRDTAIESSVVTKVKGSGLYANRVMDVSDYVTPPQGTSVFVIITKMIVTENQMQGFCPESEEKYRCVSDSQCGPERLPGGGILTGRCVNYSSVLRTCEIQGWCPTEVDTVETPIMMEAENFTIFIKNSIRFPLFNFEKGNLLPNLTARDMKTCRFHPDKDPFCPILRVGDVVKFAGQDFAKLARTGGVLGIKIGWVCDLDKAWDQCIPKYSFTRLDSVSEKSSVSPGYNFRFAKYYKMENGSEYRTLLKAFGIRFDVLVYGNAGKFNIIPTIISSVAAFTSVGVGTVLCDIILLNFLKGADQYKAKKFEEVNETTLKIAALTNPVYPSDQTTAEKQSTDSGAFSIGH
- PROTOCOL TEXT: In vitro electrophysiology assay for P2X3 (automated whole-cell patch clamp, α,β-MeATP agonist)
- Format: cell-based
- PROTOCOL CONDITIONS: Table 2; 800 nM α,β-MeATP, peak current; read-out: h P2X3 (pIC50 range of activity) (converted)

Below, each entry is followed by its recorded IC50 result.
[
  {
    "COMPOUND": "C[C@@H](Nc1ncnc2c(OC3CCN(CC(F)(F)F)C3)cc(-c3ccc(F)cc3)cc12)c1cnc(C(F)(F)F)nc1 (stereo partly drawn)",
    "IC50": "0.316 to 3.16 µM"
  },
  {
    "COMPOUND": "Cc1ccc(CNc2ncnc3c(OCc4ncco4)cc(-c4ccc(F)cc4)cc23)nn1",
    "IC50": "< 0.316 µM"
  },
  {
    "COMPOUND": "Cc1ccc(CNc2ncnc3c(OCC(F)F)cc(-c4ccc(F)cc4)cc23)nn1",
    "IC50": "< 0.316 µM"
  },
  {
    "COMPOUND": "C[C@@H](Nc1ncnc2c(OCC3(C(=O)O)CC3)cc(-c3ccc(F)cc3)cc12)c1cnc(C(F)(F)F)nc1",
    "IC50": "0.316 to 3.16 µM"
  },
  {
    "COMPOUND": "Cc1ccc(CNc2ncnc3c(OCC(=O)N[C@H]4CCC[C@H]4C(=O)O)cc(-c4ccc(F)cc4)cc23)nn1",
    "IC50": "< 0.316 µM"
  }
]

query: What measured IC50 goes with `Cc1ccc([C@@H](C)Nc2ncnc3c(SC4COC4)cc(-c4ccc(F)cc4)cc23)nn1` ?
result: 3.16 to 31.6 µM

query: Sample Cc1ccc([C@@H](C)Nc2ncnc3c([S+]([O-])C4COC4)cc(-c4ccc(F)cc4)cc23)nn1 (stereo partly drawn) — what was its IC50?
result: 3.16 to 31.6 µM

query: What IC50 value was documented for this compound, Cc1nc([C@@H](C)Nc2ncnc3c(S(=O)(=O)N(C)C)cc(-c4ccc(F)cc4)cc23)no1 (stereo in doubt) ?
result: < 0.316 µM

query: Can you share its IC50? I mean this compound: `CC(=O)N1CC[C@H](Oc2cc(-c3ccc(F)cc3)cc3c(N[C@H](C)c4cnc(C(F)(F)F)nc4)ncnc23)C1`
result: 0.316 to 3.16 µM

query: Given CNS(=O)(=O)c1cc(-c2ccc(F)cc2)cc2c(NC(C)c3nnc(C)s3)ncnc12 (stereo not drawn) , state its recorded IC50.
result: 0.316 to 3.16 µM

query: What does the record list as IC50 for `Cc1ccc(CNc2ncnc3c(OCC(=O)NCC(F)(F)F)cc(-c4ccc(F)cc4)cc23)nn1` ?
result: 0.316 to 3.16 µM

query: If you can, please state the reported IC50 value of `COC(=O)N1CCC(Oc2cc(-c3ccc(F)cc3)cc3c(NCc4ccc(C)nn4)ncnc23)CC1` .
result: 0.316 to 3.16 µM

query: Return reported IC50; argument: `C[C@@H](Nc1ncnc2c(S(=O)(=O)N3CCOCC3)cc(-c3ccc(F)cc3)cc12)c1cnc(C(F)(F)F)nc1`
result: < 0.316 µM

query: Recorded IC50 of Cc1nnc(C(C)Nc2ncnc3c(S(=O)(=O)N4CCC(F)(F)C4)cc(-c4ccc(F)cc4)cc23)s1 (stereo not drawn) , please.
result: 0.316 to 3.16 µM

query: // returns reported IC50 for input Cc1ccc(CNc2ncnc3c(OC4CCN(C)C4=O)cc(-c4ccc(F)cc4)cc23)nn1 (stereo not drawn)
result: 0.316 to 3.16 µM
